Taken from patent US12599582B2.

# Test system: HBV
# ASSAY_METHOD_TEXT: HBV-DNA Antiviral Assay Using HepG2.2.15 Cells (extracellular HBV DNA by qPCR)
# Format: cell-based, hepatitis B virus (HBV)
# TEST_CONDITIONS: Hepatitis B virus; HBV DNA inhibition, HepG2.2.15 cells, extracellular HBV DNA by qPCR; read-out: EC50
# Description: The following assay procedure describes the HBV antiviral assay. This assay uses HepG2.2.15 cells, which have been transfected with HBV genome, and extracellular HBV DNA quantification as endpoint. Cell viability is assessed in parallel by measuring the intracellular ATP content using the CellTiter-Glo® reagent from Promega. […] On day 7, cell viability was assessed using the CellTiter-Glo®, and the cell culture supernatants were collected for determination of HBV DNA by qPCR. […]
Below, each of the compounds is paired with its reported EC50 value.

>  <COMPOUND>
C=C[C@](C)(NC(=O)C(=O)c1c(C)c(C(=O)Nc2ccc(F)c(C#N)c2)n(C)c1C)C(F)(F)F [Compound 95b]

>  <MEASURED_ON>
HBV

>  <EC50>
1 to 10 nM

$$$$
>  <COMPOUND>
C#C[C@H](NC(=O)C(=O)c1c(C)c(C(=O)Nc2ccc(F)c(C(F)(F)F)c2)n(C)c1C)C1CC1 [Compound 38a]

>  <MEASURED_ON>
HBV

>  <EC50>
< 1 nM

$$$$
>  <COMPOUND>
C#CC1(NC(=O)C(=O)c2c(C)c(C(=O)Nc3ccc(F)c(C#N)c3)n(C)c2Cl)COC1 [Compound 40]

>  <MEASURED_ON>
HBV

>  <EC50>
< 1 nM

$$$$
>  <COMPOUND>
C=C[C@@](C)(CO)NC(=O)C(=O)c1c(C)c(C(=O)Nc2ccc(F)c(C(F)(F)F)c2)n(C)c1C [Compound 69b]

>  <MEASURED_ON>
HBV

>  <EC50>
1 to 10 nM

$$$$
>  <COMPOUND>
C#C[C@@](CO)(NC(=O)C(=O)c1c(C)c(C(=O)Nc2ccc(F)c(C(F)(F)F)c2)n(C)c1C)C1CC1 [Compound 65b]

>  <MEASURED_ON>
HBV

>  <EC50>
1 to 10 nM

$$$$
>  <COMPOUND>
C#CC1(NC(=O)C(=O)c2c(C)c(C(=O)Nc3ccc(F)c(F)c3)n(C)c2C)CCCCC1 [Compound 87]

>  <MEASURED_ON>
HBV

>  <EC50>
1 to 10 nM

$$$$
>  <COMPOUND>
C#C[C@H](CO)NC(=O)C(=O)c1c(C)c(C(=O)Nc2ccc(F)c(C#N)c2)n(C)c1C (single isomer, unassigned) [Compound 31b]

>  <MEASURED_ON>
HBV

>  <EC50>
1 to 10 nM

$$$$
>  <COMPOUND>
C#CCNC(=O)C(=O)c1c(C)c(C(=O)Nc2ccnc(Br)c2F)n(C)c1C [Compound 4]

>  <MEASURED_ON>
HBV

>  <EC50>
1 to 10 nM

$$$$
>  <COMPOUND>
Cc1c(C(=O)C(=O)NC2(C#C[C@H](C)O)COC2)c(C)n(C)c1C(=O)Nc1ccc(F)c(C#N)c1 [Compound 94b]

>  <MEASURED_ON>
HBV

>  <EC50>
1 to 10 nM

$$$$
>  <COMPOUND>
Cc1c(C(=O)C(=O)NC(C)(C)c2ccccn2)c(C)n(C)c1C(=O)Nc1ccc(F)c(C(F)(F)F)c1 [Compound 99]

>  <MEASURED_ON>
HBV

>  <EC50>
1 to 10 nM

$$$$
>  <COMPOUND>
Cc1c(C(=O)C(=O)NC2(c3cn[nH]c3)COC2)c(C)n(C)c1C(=O)Nc1ccc(F)c(C#N)c1 [Compound 151]

>  <MEASURED_ON>
HBV

>  <EC50>
1 to 10 nM

$$$$
>  <COMPOUND>
C#CC1(NC(=O)C(=O)c2c(C)c(C(=O)Nc3ccc(F)c(C(F)(F)F)c3)n(C)c2C)CC(O)C1 (centres unmarked) [Compound 49]

>  <MEASURED_ON>
HBV

>  <EC50>
< 1 nM

$$$$
>  <COMPOUND>
C#CC1(N(COC(=O)[C@@H](N)C(C)C)C(=O)C(=O)c2c(C)c(C(=O)Nc3ccc(F)c(C#N)c3)n(C)c2C)COC1 [Compound 105]

>  <MEASURED_ON>
HBV

>  <EC50>
1 to 10 nM

$$$$
>  <COMPOUND>
C#CC1(NC(=O)C(=O)c2c(C)c(C(=O)Nc3ccc(F)c(C(F)F)c3)n(C)c2C)CC(F)(F)C1 [Compound 82]

>  <MEASURED_ON>
HBV

>  <EC50>
1 to 10 nM

$$$$
